TARGET_DESC: hu-mPRα (Homo sapiens, UniProt Q86WK9)
TEST_SUMMARY: hu-mPRα steroid binding assay
RUN_CONDITIONS: compared with progesterone (=100); human mPRα
Outcome: MET for RBA (Relative Binding Affinity) of at least 3%; NOT MET for anything lower.

Please review the following examples before continuing.
>  <COMPOUND>
CC(=O)[C@H]1CC[C@H]2[C@@H]3C=CC4=CC(=O)CC[C@]4(C)[C@H]3CC[C@]12C

>  <LABEL_CLASS>
MET

$$$$
>  <COMPOUND>
CC(=O)[C@H]1CC[C@H]2[C@@H]3CC[C@H]4C[C@H](O)CC[C@]4(C)[C@H]3CC[C@]12C [3α-Hydroxy-5α-pregnan-20-one]

>  <LABEL_CLASS>
MET

$$$$
>  <COMPOUND>
CC(=O)[C@H]1CC[C@H]2[C@@H]3CCC4=CC(=O)CC[C@]4(CO)[C@H]3CC[C@]12C [19-Hydroxyprogesterone]

>  <LABEL_CLASS>
NOT MET

$$$$

Query string: Could you verify whether the entry `CC(=O)[C@H]1CC[C@H]2[C@@H]3CCC4=CC(=O)CC[C@]4(C)[C@H]3CC[C@]12C(C)=O` shows RBA (Relative Binding Affinity) of no less than 3%?
Result string: MET

Query string: Can you check `CC(=O)S[C@@H]1CC2=CC(=O)CC[C@]2(C)[C@H]2CC[C@]3(C)[C@@H](C(C)=O)CC[C@H]3[C@H]12` next?
Result string: NOT MET

Query string: Can you check C[C@]12CCC(=O)C=C1CC[C@@H]1[C@@H]2CC[C@@]2(C)[C@H]1CC[C@]2(O)C(=O)CO [Cortexolone (11-deoxycortisol), 11-deoxycortisol] next?
Result string: NOT MET

Query string: Can you check `C=C[C@]12CCC(=O)C=C1CC[C@H]1[C@@H]3CC[C@H](C(C)=O)[C@@]3(C)CC[C@@H]12` next?
Result string: MET

Query string: Can you check `CC(=O)[C@H]1CC[C@H]2[C@@H]3CCC4=CC(=O)[C@H](C#N)C[C@]4(C)[C@H]3CC[C@]12C` next?
Result string: NOT MET

Query string: Can you check `CCCCCC(=O)O[C@]1(C(C)=O)CC[C@H]2[C@@H]3CCC4=CC(=O)CC[C@]4(C)[C@H]3CC[C@@]21C` next?
Result string: MET

Query string: Can you check `C=C[C@]12CC[C@H]3[C@@H](CCC4=CC(=O)CC[C@@]43C)[C@@H]1CC[C@@H]2C(C)=O` next?
Result string: MET

* * *

Entries and their RBA (Relative Binding Affinity) values follow.
TARGET_DESC: hu-mPRα (Homo sapiens, UniProt Q86WK9)
Sequence (Q86WK9 1-346): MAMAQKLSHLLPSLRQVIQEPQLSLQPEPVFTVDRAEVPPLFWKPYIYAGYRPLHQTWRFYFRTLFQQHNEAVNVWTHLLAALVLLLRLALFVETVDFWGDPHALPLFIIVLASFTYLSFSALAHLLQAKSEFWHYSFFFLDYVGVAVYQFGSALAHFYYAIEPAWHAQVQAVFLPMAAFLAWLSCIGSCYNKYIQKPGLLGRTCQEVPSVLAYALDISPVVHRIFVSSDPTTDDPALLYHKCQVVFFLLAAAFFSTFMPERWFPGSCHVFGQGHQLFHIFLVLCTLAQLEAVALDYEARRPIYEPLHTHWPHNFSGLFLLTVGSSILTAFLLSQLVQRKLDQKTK
TEST_SUMMARY: hu-mPRα steroid binding assay
RUN_CONDITIONS: compared with progesterone (=100); human mPRα
Use % as the unit, but write only the number.

>  <COMPOUND>
C[C@@H]1C=C2CC(=O)CC[C@]2(C)[C@H]2CC[C@]3(C)[C@@H](O)CC[C@H]3[C@H]12 [17β-Hydroxy-7α-methylandrost-5-en-3-one]

>  <TARGET_DESC>
hu-mPRα (Homo sapiens, UniProt Q86WK9)

>  <RBA (Relative Binding Affinity) [%]>
3.0

$$$$
>  <COMPOUND>
CC(=O)[C@H]1CC[C@H]2[C@@H]3CCC4=CC(=O)C=C[C@]4(C)[C@H]3CC[C@]12C

>  <TARGET_DESC>
hu-mPRα (Homo sapiens, UniProt Q86WK9)

>  <RBA (Relative Binding Affinity) [%]>
93.5

$$$$

Query string: Reported RBA (Relative Binding Affinity), compound C[C@]12CC[C@H]3[C@@H](CCC4=CC(=O)CC[C@@]43C)[C@@H]1CC[C@H]2O [17-Epitestosterone] : ____
Result string: 2.8
